Tested on: A498
Test: NCI tumour cell line growth inhibition, 48 h
Active and inactive are the calls of the source. Rule as the data show it: active = GI50 up to about 1.1 µM and inactive = higher.
Use one of these outcomes when replying: y for active, n for inactive

>>> qualitative_label("Cc1cc(Br)cc(C)c1NC(=O)C(=O)CC(=O)c1sc(-n2nc(-c3ccccc3)cc2-c2ccccc2)nc1C")
"n"
>>> qualitative_label("CCOC(=O)c1nc2ccc(C(F)(F)F)cc2nc1Nc1cc(OC)c(OC)c(OC)c1")
"n"
>>> qualitative_label("NCC(O)CNC(=O)c1ccc(-c2ccc(-c3ccc(C(=O)NCC(O)CN)cc3)o2)cc1 (centres undefined)")
"n"

// outcome(item) with item = CC(=O)O[C@@H]1[C@H](OC2CCCCC2(c2ccccc2)c2ccccc2)O[N+]([O-])=CC12CCCCC2 (some centres undefined)
n

Which outcome was entered for the molecule "NNC(=O)/C(=C/c1cccc([N+](=O)[O-])c1)NC(=O)c1ccccc1" in this test?
n

What call does the record list for "C[C@]12CC[C@@H]3c4cc(OCC(F)(F)F)c(O)cc4/C(=N/O)C[C@H]3[C@@H]1CC[C@@H]2O" ?
y
